Just for reference, patent US6525001B1 is where these values come from.

System: corn (Zea mays)
protocolText: Test B pre-/postemergence
Type: in vivo
Design: key: 0 is no effect; 10 is complete control
conditionNotes: Rate 250 g/ha, Postemergence (so in the source)
Would you mind telling me the reported Plant response rating, Corn of each entry?
One number for each entry.

Cc1cnc(-c2ccc(C(F)(F)F)cc2)nc1Cc1cccc(C#N)c1; 0

Batch request: Plant response rating, Corn for each of the following compounds.
1. COc1cnc(-n2ccc(C(F)(F)F)n2)nc1Cc1cccc(C(F)(F)F)c1
2. Cc1cnc(-n2cnc(C(F)(F)F)c2)nc1Cc1cccc(C(F)(F)F)c1
3. Cc1cnc(-c2ccc(Cl)c(Cl)c2)nc1Cc1cccc(C#N)c1
4. Cc1cnc(-n2cnc(C(F)(F)F)n2)nc1Cc1cccc(C(F)(F)F)c1
5. Cc1cnc(-c2ccccc2F)nc1Cc1cccc(C(F)(F)F)c1

[0, 1, 0, 1, 0]

----------
System: broadleaf signalgrass (Brachiaria decumbens)
protocolText: Test B pre-/postemergence
Format: in vivo
conditionNotes: Rate 62 g/ha, Preemergence
Would you mind telling me the reported B. signalgrass plant response rating of each entry?

Here are 3 compounds together with their reported answers.
COc1cnc(-n2ccc(C(F)(F)F)n2)nc1C(=O)c1cccc(C(F)(F)F)c1; 2
Cc1cnc(-c2ccc(C#N)cc2)nc1Cc1cccc(C#N)c1; 0
O=C(c1cccc(C(F)(F)F)c1)c1ccnc(-n2ccc(C(F)(F)F)n2)n1; 0

Batch request: B. signalgrass plant response rating for each of the following compounds.
1. Cc1cnc(-c2ccc(Cl)cc2)nc1Cc1cccc(C(F)(F)F)c1
2. Cc1cnc(-n2ccc(C(F)(F)C(F)(F)F)n2)nc1C(=O)c1cccc(C(F)(F)F)c1

1. 2
2. 5

----------
Tested on: velvetleaf (Abutilon theophrasti)
protocolText: Test B pre-/postemergence
Type: in vivo
Parameters: key: 0 is no effect; 10 is complete control
conditionNotes: Rate 250 g/ha, Postemergence (so in the source)
measurementName: Plant response rating, Velvetleaf
Numbers only.

CCc1cnc(-c2ccc(C(F)(F)F)cc2)nc1Cc1cccc(OC(F)(F)F)c1 [Compound 41]; 10
Cc1cnc(-c2ccc(Cl)cc2F)nc1Cc1cccc(C(F)(F)F)c1 [Compound 29]; 0
Cc1cnc(-c2ccc(Cl)cc2F)nc1Cc1cccc(C#N)c1 [Compound 35]; 1
Cc1cnc(-c2ccc(C(F)(F)F)cc2)nc1Cc1cccc(C#N)c1 [Compound 32]; 10
Cc1cnc(-c2ccc(C#N)cc2)nc1Cc1cccc(C#N)c1 [Compound 36]; 1
Cc1cnc(-c2ccc(F)cc2F)nc1Cc1cccc(C#N)c1 [Compound 34]; 0

Batch request: Plant response rating, Velvetleaf for each of the following compounds.
1. CCc1cnc(-n2ccc(C(F)(F)F)n2)nc1Cc1cccc(OC(F)(F)F)c1 [Compound 47]
2. Cc1cnc(-c2ccc(F)c(Cl)c2)nc1Cc1cccc(C#N)c1 [Compound 40]

1: 10; 2: 1

----------
System: sugar beet (Beta vulgaris)
protocolText: Test B pre-/postemergence
Assay type: in vivo
conditionNotes: Preemergence, Rate 62 g/ha; scale of 0 to 10
Each entry gets Not fulfilled if its Plant response rating, Sugarbeets stays under 4, and Fulfilled if its Plant response rating, Sugarbeets is 4 or above.

Cc1cnc(-c2ccc(C(F)(F)F)cc2)nc1C(=O)c1cccc(C(F)(F)F)c1 [Compound 73]; Fulfilled
Cc1cnc(-n2ccc(C(F)(F)C(F)(F)F)n2)nc1C(=O)c1cccc(OC(F)(F)F)c1 [Compound 62]; Fulfilled
Cc1cnc(-n2cnc(C(F)(F)F)n2)nc1C(=O)c1cccc(C(F)(F)F)c1 [Compound 67]; Fulfilled
N#Cc1ccc(-c2nccc(C(=O)c3cccc(C(F)(F)F)c3)n2)cc1 [Compound 78]; Not fulfilled
Cc1cnc(-n2cnc(C(F)(F)F)n2)nc1C(=O)c1cccc(OC(F)(F)F)c1 [Compound 64]; Fulfilled

Tell me whether Plant response rating, Sugarbeets is at least 4 here: COc1cnc(-n2ccc(C(F)(F)F)n2)nc1C(=O)c1cccc(C(F)(F)F)c1 [Compound 60] Fulfilled

Tell me whether Plant response rating, Sugarbeets is at least 4 here: Cc1cnc(-c2ccc(C(F)(F)F)cc2)nc1C(=O)c1ccc(C(F)(F)F)cc1 [Compound 74] Not fulfilled

Tell me whether Plant response rating, Sugarbeets is at least 4 here: Cc1cnc(-c2ccc(C(F)(F)F)cc2)nc1Cn1cc(Br)cn1 [Compound 54] Not fulfilled
